# SYSTEM UNDER TEST: human CMKLR1 (Homo sapiens, UniProt Q99788)
# Construct: host or cells: HEK293A (Invitrogen), stably expressing human Gα15
# Sequence (Q99788 1-373): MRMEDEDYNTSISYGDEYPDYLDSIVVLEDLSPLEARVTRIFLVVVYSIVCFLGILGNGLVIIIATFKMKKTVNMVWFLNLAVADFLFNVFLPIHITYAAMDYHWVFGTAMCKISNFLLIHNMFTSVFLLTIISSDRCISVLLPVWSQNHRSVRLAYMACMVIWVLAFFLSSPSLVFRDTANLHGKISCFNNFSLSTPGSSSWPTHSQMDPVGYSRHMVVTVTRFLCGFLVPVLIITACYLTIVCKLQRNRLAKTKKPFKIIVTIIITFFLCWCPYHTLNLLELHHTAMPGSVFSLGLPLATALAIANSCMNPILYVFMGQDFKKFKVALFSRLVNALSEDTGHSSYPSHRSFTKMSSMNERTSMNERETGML
# TEST DETAILS: Ca2+ mobilization (CellLux imaging) agonist assay in HEK293A cells expressing CMKLR1 and Gα15
# Type: cell-based
# SETTINGS: Ca2+ mobilization, CMKLR1; decimal comma; NR where no EC50 is given; read-out: EC50
# Experimental: HEK293A cells (Invitrogen) expressing CMKLR1 and Gα15 were seeded at 5*10^4 cells/well in a poly-D-lysine coated 96-well black well/clear bottom plate (BD Falcon) and cultured overnight. From eighteen to twenty-four hours later, cells were loaded with FLUO4-AM (Invitrogen). […] Fluorescence data was generated in duplicate and experiments were repeated for at least three times. […] Signals were normalized to background fluorescence. […]
Square brackets hold non-standard residues; d marks the D form. Peptide text beside a SMILES is read from it.
MEASUREMENT LABEL: pEC50
# pEC50 is unitless: minus log10 of the molar concentration; print number only

Example cases with answers are listed next.
# COMPOUND, MEASUREMENT LABEL, NUMERIC READOUT
records = [
    ("C[C@H](NC(=O)[C@H](Cc1c[nH]c2ccccc12)NC(=O)[C@H](CCC(N)=O)NC(=O)CNC(=O)[C@@H]1CCCN1C(=O)[C@H](Cc1c[nH]c2ccccc12)NC(=O)[C@@H](N)Cc1ccc(O)cc1)C(=O)N[C@H](Cc1ccccc1)C(=O)N[C@@H](CS)C(N)=O [compound 22] (H-YWPGQWA[dF]C-NH2; N-terminus assumed)", "pEC50", 4.73),
    ("CC(C)C[C@H](NC(=O)[C@H](N)Cc1ccc(O)cc1)C(=O)N1CCC[C@@H]1C(=O)NCC(=O)N[C@@H](CCC(N)=O)C(=O)N[C@@H](Cc1ccc(O)cc1)C(=O)N[C@@H](C)C(=O)N[C@@H](Cc1ccccc1)C(=O)N[C@@H](CO)C(=O)O [compound 104] (H-[dY]L[dP]GQYAFS-OH; N-terminus assumed)", "pEC50", 6.61),
]

Query: Answer briefly: pEC50 recorded on human CMKLR1 (Homo sapiens, UniProt Q99788) for C[C@H](N)C(=O)N[C@@H](Cc1ccccc1)C(=O)NCC(=O)N[C@H](Cc1ccccc1)C(=O)N[C@H](CCC(N)=O)C(=O)N[C@@H](CO)C(=O)N[C@@H](C)C(=O)N[C@@H](Cc1ccc(O)cc1)C(=O)N[C@@H](CO)C(=O)O [compound 134] (H-AFG[dF][dQ]SAYS-OH; N-terminus assumed)
Reply: 7.16
